testedTarget: RAC-alpha serine/threonine-protein kinase (Homo sapiens)
Sequence (P31749 whole entry): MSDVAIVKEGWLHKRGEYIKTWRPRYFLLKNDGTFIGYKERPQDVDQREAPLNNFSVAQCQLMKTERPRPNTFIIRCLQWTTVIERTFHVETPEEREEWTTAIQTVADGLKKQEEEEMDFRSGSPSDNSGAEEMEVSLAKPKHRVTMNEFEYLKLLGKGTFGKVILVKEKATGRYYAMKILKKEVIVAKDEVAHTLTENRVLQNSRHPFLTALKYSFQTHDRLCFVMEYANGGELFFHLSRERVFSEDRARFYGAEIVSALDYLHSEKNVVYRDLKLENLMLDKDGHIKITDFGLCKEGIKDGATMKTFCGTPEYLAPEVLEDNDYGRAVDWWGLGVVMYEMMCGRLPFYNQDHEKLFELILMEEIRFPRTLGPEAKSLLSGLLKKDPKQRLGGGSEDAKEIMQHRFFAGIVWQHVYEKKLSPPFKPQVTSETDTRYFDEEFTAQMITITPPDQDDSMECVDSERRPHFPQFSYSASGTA
observationType: IC50 (nM)

I = C[C@@H]1C[C@@H](O)c2ncnc(N3CCN(C(=O)[C@H](CN)c4ccc(C(F)(F)F)cc4)CC3)c21
II = C[C@@H]1C[C@@H](O)c2ncnc(N3CCN(C(=O)[C@H](CNCC(F)(F)F)c4ccc(Cl)cc4)CC3)c21
In terms of reported IC50, does I or II have the smaller number? Write the label of whichever entry you select.
I

P = CC(C)NC[C@@H](C(=O)N1CCN(c2ncnc3c2[C@H](C)C[C@H]3O)CC1)c1ccc(Cl)c(F)c1
Q = C[C@@H]1C[C@@H](O)c2ncnc(N3CCN(C(=O)[C@H](CN)c4ccc(Cl)cc4)CC3)c21
// max by IC50 over [ P , Q ] Record your answer as the label of the chosen record.
Q

a = C[C@@H]1C[C@@H](O)c2ncnc(N3CCN(C(=O)[C@H](CNCC4CCOCC4)c4ccc(Cl)cc4)CC3)c21
b = CO[C@H]1CC[C@H](NC[C@@H](C(=O)N2CCN(c3ncnc4c3[C@H](C)C[C@H]4O)CC2)c2ccc(Cl)cc2)CC1
c = C[C@@H]1C[C@@H](O)c2ncnc(N3CCN(C(=O)[C@H](CNC4CCOCC4)c4ccc(Cl)c(F)c4)CC3)c21
d = CC(C)N(C)C[C@@H](C(=O)N1CCN(c2ncnc3c2[C@H](C)C[C@H]3O)CC1)c1ccc(Cl)cc1
e = CC(C)NC[C@@H](C(=O)N1CCN(c2ncnc3c2[C@H](CO)CC3)CC1)c1ccc(Cl)cc1
Order these by IC50, descending, and give the full ranking. Kindly provide the labels arranged according to the requested ordering.
e, d, c, b, a

P = CC(C)NC[C@@H](C(=O)N1CCN(c2ncnc3c2[C@H](CF)CC3)CC1)c1ccc(Cl)cc1
Q = C[C@@H]1C[C@@H](O)c2ncnc(N3CCN(C(=O)[C@H](CNC4CCCCC4)c4ccc(Cl)cc4)CC3)c21
R = CC(C)NC[C@@H](C(=O)N1CCN(c2ncnc3c2[C@H](C)CC3)CC1)c1ccc(Cl)cc1
S = C=C[C@@H]1CCc2ncnc(N3CCN(C(=O)[C@H](CNC(C)C)c4ccc(Cl)cc4)CC3)c21
Arrange these compounds by their IC50, starting with the largest number. Return value: ordered labels per request.
Q, R, P, S
(Q: 9 nM, R: 6 nM, P: 3 nM, S: 2 nM)

Where do the numbers come from? From ChEMBL document CHEMBL2177010.
